B1: Hairpin Ribozyme (parent)
chain: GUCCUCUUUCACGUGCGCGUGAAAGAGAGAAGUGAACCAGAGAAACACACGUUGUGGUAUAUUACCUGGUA

Variants of: B1
testSummary: self-cleavage, relative activity (ratio to wild type); higher = more cleavage; co-transcriptional
reportedEndpoint: self-cleavage
Answers are plain numbers.

Before answering, review these 4 worked examples.
- GUCCUCUUUCACGUGCGGGUGAAAGAGUGAAGUGAACCAGAGAAACACACGUUGUGGUAUAUUACCUGGUA: 0.5
- GUCCUCUGUCACGUGCGCGUGAAAGAGAGAAGUGAACCAGAGAAACACACGUUGUGGUAUAUUACCUGAUA: 0.282
- GUCCUCUUUCACGUGCGCGUGAAAGAGAGAAGUGAACCAGAGAAACACACGUUGUCGUAUAUUACCUGGGA: 0.0624
- GUCCUCUUUCACGUGCGCGUGAAAGAGAGAAGUGAACCAGAGAAACACGCGUUGUGGUAUAUUACCAGGUA: 0.208

For every item below, please supply its self-cleavage.
1. GUCCUCUUUCACGUGCGCGUGAAAGAGAGAAGUGAACCCGAGAAACACACGUUGCGGUAUAUUACCUGGUA
2. GUCCUCUUUCACGUGCGCGUGAAAGAGAGAAGUGAACCAGAGAAUCACACGUUGUGAUAUAUUACCUGGUA
3. GUCCUCUUUCACGUGCGCGUGAAAGAGAGAAUGGAACCAGAGAAACACACGUUGUGGUAUAUUACCUGGUA
4. AUCCUCUUUCACGUGCGCGUGAAAGAGAGAAGUGAACCAGAGAAACACACGUUGUGGUAUAUUACAUGGUA
5. GUCCUCUUUCAUGUGCGCUUGAAAGAGAGAAGUGAACCAGAGAAACACACGUUGUGGUAUAUUACCUGGUA
6. GUCCUCUUUCACGUGCGCGUGAAAGAGAGAAGUGAGCCAGAGAAACACACGUUGUGGUAUAUUAUCUGGUA
7. GUCCUCUUUCACGUGCGCGUGAAAGAGGGAAGUGAACCAGAGAAACACUCGUUGUGGUAUAUUACCUGGUA
8. GUCCUCUUGCACGUGCGCGUGAAAGAGAGAAGUGAACCAGAGAAAGACACGUUGUGGUAUAUUACCUGGUA

Return:
1. 0.188
2. 0.17
3. 0.0653
4. 0.164
5. 0.954
6. 0.267
7. 0.118
8. 0.161

For every item below, please supply its self-cleavage.
1. GUCCUCUUGCACGUGCGCGUGAAAGAGAGAAGUGAACCAGAGAAACACACGUUGUGGUAUAUUACCAGGUA
2. GUCCUCUUUCACGUGCGCGUGAAAGAGAGAAGUGAACUAGAGAAACACACGUUGUGGUAUAUUACCUCGUA

Return:
0.0846
0.171

For every item below, please supply its self-cleavage.
1. GUCCUCUUACACGUGCGCGUGAAAGAGAGAAGUGAACCAGAGAAACACACGUUGUGGUAUAUCACCUGGUA
2. GUCCUCUUUCACGUGCGCGUGAAAGAGAGAAGUGAACCAAAGAAACAAACGUUGUGGUAUAUUACCUGGUA
3. GUCCUCAUUCACGUGCGCGUGAAAGAGAGAAGUGAACCAGAGAAACACACGUUUUGGUAUAUUACCUGGUA
4. GUCCUCUUUCACGUGCGCGUGAAAGAGAGAAGUGAACCAGAGAAACACACGUUGUGGUAUAUUAGCUGGUG
5. GUCCUCUUUCACGUGCGCGUGAAAGAGAGAAGUGAACCAGAGAAACACACAUUGUGGUAUAUUACCUGAUA

Return:
1. 0.205
2. 0.246
3. 0.589
4. 0.187
5. 0.596

For every item below, please supply its self-cleavage.
1. GUCCUCUUUCACGUGCGCGUGAAAGAGAGAAGUGAACCCGAGAAACACACUUUGUGGUAUAUUACCUGGUA
2. GUCGUCUUUCACGUGAGCGUGAAAGAGAGAAGUGAACCAGAGAAACACACGUUGUGGUAUAUUACCUGGUA
3. GUCCUCUUUCACGUGCGCGUGAAAGAGAGAAGUGAACCAGAGAAACACGCGUUGUGGCAUAUUACCUGGUA

Return:
0.64
0.304
0.532

Each recorded value in this set is attributed to the RNAGym collection of RNA variant scans (doi:10.7554/elife.80360).
